B1: Kinesin-like protein KIF16B, residues 1213 to 1273; numbered along this chain, Q96L93 (parent)
chain: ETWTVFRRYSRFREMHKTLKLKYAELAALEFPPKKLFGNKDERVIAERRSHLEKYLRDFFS

- Variants of: B1
- assay-method-text: abundance fitness (aPCA) (normalised: wild type 0, dead -1); higher = more abundant; growth selection in yeast, the domain comes from the species named
- setup-conditions: Homo sapiens
# if value of abundance fitness reaches -0.03, tag criterion met; if it stays below, tag criterion not met

Below are worked cases with known answers.
[[record]]
mut = "D41Y"
category_label = "criterion met"

[[record]]
mut = "E42D"
category_label = "criterion not met"

[[record]]
mut = "L26N"
category_label = "criterion not met"

[[record]]
mut = "S10E"
category_label = "criterion not met"

[[record]]
mut = "L21D"
category_label = "criterion met"

[[record]]
mut = "E14L"
category_label = "criterion not met"


Hi team, for "W3D" , is the recorded abundance fitness at or above -0.03?
criterion met

Hi team, for "T2M" , is the recorded abundance fitness at or above -0.03?
criterion not met
